Dear all, this message contains pIC50 results, target or system Mineralocorticoid receptor (Homo sapiens, UniProt P08235).
Lab note: report pIC50 as minus log10 of the concentration in molar units, number only.

Solved cases below.
{"substance.smiles": "Cc1ccccc1-n1nc(C(F)(F)F)cc1-c1ccc2c(c1)NC(=O)CO2", "observed": 6.82}
{"substance.smiles": "Cc1cc(F)ccc1-n1nc(C(F)(F)F)cc1-c1cc(Cl)c2c(c1)NC(=O)CO2", "observed": 7.15}
{"substance.smiles": "Cc1cc(F)ccc1-n1nc(C(F)(F)F)cc1-c1cc(F)c2c(c1)NC(=O)CO2", "observed": 7.07}
{"substance.smiles": "Cc1cc(F)ccc1-n1nc(C(F)(F)F)cc1-c1ccc2c(c1)NC(=O)CO2", "observed": 7.37}

# ---- query molecule ----
The molecule Cc1cc(F)ccc1-n1nc(C(F)(F)F)cc1-c1cc(C)c2c(c1)NC(=O)CO2 , tested on Mineralocorticoid receptor (Homo sapiens, UniProt P08235), showed pIC50 of 7.82

----------
Listing of recorded IC50 by entry.
- target.or.system: Progesterone receptor (Homo sapiens, UniProt P06401)
- Sequence (P06401 whole entry): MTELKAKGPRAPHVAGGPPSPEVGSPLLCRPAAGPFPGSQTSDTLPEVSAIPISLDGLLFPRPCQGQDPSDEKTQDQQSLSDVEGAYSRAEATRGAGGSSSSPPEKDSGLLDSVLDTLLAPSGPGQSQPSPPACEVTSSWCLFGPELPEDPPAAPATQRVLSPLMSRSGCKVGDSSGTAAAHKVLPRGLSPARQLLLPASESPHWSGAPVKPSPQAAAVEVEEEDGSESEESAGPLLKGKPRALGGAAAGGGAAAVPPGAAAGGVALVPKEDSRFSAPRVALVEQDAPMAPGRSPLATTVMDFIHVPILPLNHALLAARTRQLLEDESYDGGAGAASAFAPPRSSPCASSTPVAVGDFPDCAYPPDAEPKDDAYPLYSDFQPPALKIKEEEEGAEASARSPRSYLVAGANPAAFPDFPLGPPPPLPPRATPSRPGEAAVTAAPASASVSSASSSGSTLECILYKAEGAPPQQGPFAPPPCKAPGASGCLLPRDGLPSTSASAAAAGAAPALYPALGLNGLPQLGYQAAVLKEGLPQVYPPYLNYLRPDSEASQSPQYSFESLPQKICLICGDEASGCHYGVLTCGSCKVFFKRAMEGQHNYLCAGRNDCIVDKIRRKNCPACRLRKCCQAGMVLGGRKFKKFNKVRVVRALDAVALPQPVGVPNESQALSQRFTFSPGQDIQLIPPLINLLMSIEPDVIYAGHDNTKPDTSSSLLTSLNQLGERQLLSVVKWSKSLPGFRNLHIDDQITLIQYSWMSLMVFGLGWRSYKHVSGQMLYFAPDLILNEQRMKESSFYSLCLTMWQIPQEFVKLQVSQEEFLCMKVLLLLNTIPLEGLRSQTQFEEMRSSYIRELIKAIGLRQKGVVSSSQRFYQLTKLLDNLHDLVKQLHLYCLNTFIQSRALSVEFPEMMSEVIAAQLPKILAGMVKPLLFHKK
Value expressed in µM; do not type the unit.

{"molecule": "Cc1cc(F)ccc1-n1nc(C(F)(F)F)cc1-c1ccc2c(c1)NC(=O)CO2", "IC50 (µM)": 1.9}
{"molecule": "Cc1cc(F)ccc1-n1nc(C(F)(F)F)cc1-c1cc(C)c2c(c1)NC(=O)CO2", "IC50 (µM)": 2.4}

# ---- query molecule ----
The molecule O=C1COc2ccc(C3=Nc4ccccc4SC3c3ccccc3)cc2N1 (stereo not drawn) , tested on Progesterone receptor (Homo sapiens, UniProt P06401), showed IC50 of 1.4

----------
- target.or.system: Androgen receptor (Homo sapiens, UniProt P10275)
- Sequence (P10275 whole entry): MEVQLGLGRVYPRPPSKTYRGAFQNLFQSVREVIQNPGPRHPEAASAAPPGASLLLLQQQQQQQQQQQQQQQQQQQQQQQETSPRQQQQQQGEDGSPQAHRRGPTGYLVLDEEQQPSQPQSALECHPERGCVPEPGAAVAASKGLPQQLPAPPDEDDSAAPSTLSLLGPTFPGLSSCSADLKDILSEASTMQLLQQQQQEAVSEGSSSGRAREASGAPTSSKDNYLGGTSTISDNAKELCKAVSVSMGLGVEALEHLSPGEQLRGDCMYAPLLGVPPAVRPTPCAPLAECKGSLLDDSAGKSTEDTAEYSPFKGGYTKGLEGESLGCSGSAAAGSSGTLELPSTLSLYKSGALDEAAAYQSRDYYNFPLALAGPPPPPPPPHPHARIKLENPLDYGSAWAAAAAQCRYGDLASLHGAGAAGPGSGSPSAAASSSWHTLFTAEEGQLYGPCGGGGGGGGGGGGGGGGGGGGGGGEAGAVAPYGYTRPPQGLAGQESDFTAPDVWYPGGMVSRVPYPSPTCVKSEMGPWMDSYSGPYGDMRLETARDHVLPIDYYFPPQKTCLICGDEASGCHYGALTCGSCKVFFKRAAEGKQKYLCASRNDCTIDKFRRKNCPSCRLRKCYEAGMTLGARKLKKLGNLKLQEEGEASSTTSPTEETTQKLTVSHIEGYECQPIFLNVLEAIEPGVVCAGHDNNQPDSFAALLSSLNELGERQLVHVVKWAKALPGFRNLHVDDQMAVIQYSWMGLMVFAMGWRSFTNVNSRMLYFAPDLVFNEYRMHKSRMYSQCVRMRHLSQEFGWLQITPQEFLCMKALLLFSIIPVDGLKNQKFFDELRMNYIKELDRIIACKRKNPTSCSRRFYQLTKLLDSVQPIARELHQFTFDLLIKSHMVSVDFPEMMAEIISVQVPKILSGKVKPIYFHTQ
Listing of recorded IC50 by entry.

{"compound": "Cc1cc(-c2ccc3c(c2)NC(=O)CO3)n(-c2ccccc2)n1", "observed": "> 10 µM"}
{"compound": "O=C1COc2ccc(C3=Nn4cnnc4SC3)cc2N1", "observed": "> 10 µM"}
{"compound": "O=C1COc2ccc(C3=Nn4cnnc4SC3c3ccc(F)cc3)cc2N1 (stereo not given)", "observed": "> 10 µM"}
{"compound": "O=C1COc2ccc(C3=Nc4ccccc4SC3c3ccccc3)cc2N1 (stereo not given)", "observed": "1.2 µM"}

# ---- query compound ----
IC50 reported for this compound Cc1ccccc1-n1nc(C(F)(F)F)cc1-c1ccc2c(c1)NC(=O)CO2 : > 10 µM
